# TEST PARAMETERS: 298.15 K; 100 kPa; Liquid; Vibrating tube method
REPORTED PROPERTY: mass density (kg/m3)

{"COMPOUND": "CCCCCCCCO [octan-1-ol]", "mass density [kg/m3]": 821.4}
{"COMPOUND": "CCCCC(=O)O [pentanoic acid]", "mass density [kg/m3]": 935.1}
{"COMPOUND": "CCCCCO [pentan-1-ol]", "mass density [kg/m3]": 810.8}
{"COMPOUND": "CCCCCCCCCO [nonan-1-ol]", "mass density [kg/m3]": 824}
{"COMPOUND": "CCCCCCCO [heptan-1-ol]", "mass density [kg/m3]": 818.7}
{"COMPOUND": "CCCCCCCCCCO [decan-1-ol]", "mass density [kg/m3]": 826.1}
{"COMPOUND": "CCCCCCO [hexan-1-ol]", "mass density [kg/m3]": 815.1}
